system: Staphylococcus aureus; experiment: Antimicrobial activity against methicillin-resistant Staphylococcus aureus strain 2 TB4G at 1000 ug/disc after 24 hrs by disc diffusion method; format: functional; details: read-out: DIZ
Readings of zone of inhibition at 1000 µg/disc for the listed molecules
Numeric answer only, unit mm assumed.

INSERT INTO measurements (molecule, quantity_measured, unit_label, test_value) VALUES
  ('CC(C)CC(=O)O[C@@H](c1ccccc1)c1cc(O)c(C(=O)O)c(=O)[nH]1', 'zone of inhibition at 1000 µg/disc', 'mm', 12),
  ('CC(C)CC(=O)O[C@@H](c1ccccc1)c1cc(O)cc(=O)[nH]1', 'zone of inhibition at 1000 µg/disc', 'mm', 26),
  ('CC(C)CC(=O)OC(c1ccccc1)c1cc(O)c(C(=O)O)c(=O)[nH]1 (racemic)', 'zone of inhibition at 1000 µg/disc', 'mm', 12);

Shift focus to the following entry.
Note down zone of inhibition at 1000 µg/disc recorded for `CC(C)CC(=O)O[C@H](c1ccccc1)c1cc(O)c(C(=O)O)c(=O)[nH]1`
10
